- measured_on: Human JAK1 (Homo sapiens, UniProt P23458)
- Construct: purchased Millipore, Germany
- Sequence (P23458 whole entry): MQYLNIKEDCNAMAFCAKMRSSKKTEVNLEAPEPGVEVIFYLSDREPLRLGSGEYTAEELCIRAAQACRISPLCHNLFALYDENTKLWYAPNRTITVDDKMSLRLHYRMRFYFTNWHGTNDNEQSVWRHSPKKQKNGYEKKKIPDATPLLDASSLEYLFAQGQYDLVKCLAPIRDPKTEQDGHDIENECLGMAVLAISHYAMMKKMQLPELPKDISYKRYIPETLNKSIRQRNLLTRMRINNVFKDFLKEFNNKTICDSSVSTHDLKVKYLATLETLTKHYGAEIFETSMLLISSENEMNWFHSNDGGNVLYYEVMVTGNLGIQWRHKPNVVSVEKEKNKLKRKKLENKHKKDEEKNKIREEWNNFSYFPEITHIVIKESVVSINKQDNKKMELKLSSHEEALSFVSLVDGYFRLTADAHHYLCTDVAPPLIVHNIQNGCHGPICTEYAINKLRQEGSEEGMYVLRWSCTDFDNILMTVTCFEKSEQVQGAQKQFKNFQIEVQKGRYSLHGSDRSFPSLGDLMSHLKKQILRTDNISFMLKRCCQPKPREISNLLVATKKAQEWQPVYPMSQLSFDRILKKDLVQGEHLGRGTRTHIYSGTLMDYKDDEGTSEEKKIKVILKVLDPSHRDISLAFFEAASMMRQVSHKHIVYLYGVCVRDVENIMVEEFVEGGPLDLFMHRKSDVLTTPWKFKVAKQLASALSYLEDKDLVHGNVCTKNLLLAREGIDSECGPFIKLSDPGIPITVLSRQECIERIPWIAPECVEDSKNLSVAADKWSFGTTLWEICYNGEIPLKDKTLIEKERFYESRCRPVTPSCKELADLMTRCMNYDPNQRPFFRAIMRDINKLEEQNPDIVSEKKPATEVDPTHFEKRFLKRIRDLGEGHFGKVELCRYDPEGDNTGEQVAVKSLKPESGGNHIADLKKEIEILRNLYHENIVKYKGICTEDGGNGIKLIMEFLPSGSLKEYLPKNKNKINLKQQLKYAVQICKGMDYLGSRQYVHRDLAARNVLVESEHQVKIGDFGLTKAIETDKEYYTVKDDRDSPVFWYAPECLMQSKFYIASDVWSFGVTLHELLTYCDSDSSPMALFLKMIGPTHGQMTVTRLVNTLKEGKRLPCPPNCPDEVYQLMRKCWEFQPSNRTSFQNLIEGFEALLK
- assay_info: In-vitro kinase inhibition test, JAK1
- Type: biochemical
- study_conditions: compound at 1 uM; read-out: JAK1 kinase-phosphorylation inhibitory level (% inhibition)
measured_endpoint: inhibition at 1 µM (%)

CC(C)S(=O)(=O)N1CC[C@@H](N(C)c2ncnc3[nH]ccc23)C1; 86
CN(c1ncnc2[nH]ccc12)[C@@H]1CCN(S(=O)(=O)c2ccc3ccccc3c2)C1; 99
CC(C)COC(=O)N1CC[C@@H](N(C)c2ncnc3[nH]ccc23)C1; 93
COc1ccc(S(=O)(=O)N2CC[C@@H](N(C)c3ncnc4[nH]ccc34)C2)cc1; 98
CN(c1ncnc2[nH]ccc12)[C@@H]1CCCN(C(=O)CC#N)C1; 99
CN(c1ncnc2[nH]ccc12)[C@@H]1CCN(S(=O)(=O)c2ccccc2[N+](=O)[O-])C1; 93
CN(c1ncnc2[nH]ccc12)[C@@H]1CCN(C(=O)CC#N)C1; 97
CN(c1ncnc2[nH]ccc12)[C@@H]1CCN(S(=O)(=O)c2ccc(F)cc2)C1; 99
